Listed molecules paired with reported Flk Kinase % Inhibition (P.110)
system: FLK-1 receptor; assay: FLK-1 Assay (cellular/catalytic ELISA, VEGF-stimulated phosphotyrosine); format: cell-based; parameters: concentration or dose not given beside the values

{"columns": ["Molecule", "Readout Units", "Flk Kinase % Inhibition (P.110)"],
 "data": [
  ["Cc1c(Br)cc(Br)c2c1C(=Cc1cc3ccccc3o1)C(=O)N2 [10724/H07]", "%", 1.1],
  ["Cc1ccccc1C=C1C(=O)Nc2ccc(I)cc21 [10735/B02]", "%", 1.1],
  ["CC(=O)n1cc(C=C2C(=O)Nc3c(Br)cc(Br)c(C)c32)c2ccccc21 [10730/H05]", "%", 11.7],
  ["Cc1c(Br)ccc2c1C(=Cc1ccccc1F)C(=O)N2 [10736/C08]", "%", 3.1],
  ["COc1c(C(C)C)cc(C=C2C(=O)Nc3c(Br)cc(Br)c(C)c32)cc1C(C)C [10732/H03]", "%", 8.4],
  ["CCOC(=O)c1c(C)[nH]c(C=C2C(=O)Nc3c(Br)cc(Br)c(C)c32)c1C [10718/H02]", "%", "−1.4"],
  ["Cc1cc(C)c(C=C2C(=O)Nc3c(Br)cc(Br)c(C)c32)[nH]1 [10721/H08]", "%", "−6.8"],
  ["O=C1Nc2ccc(S(=O)(=O)Nc3ccc(C(F)(F)F)cc3)cc2C1=Cc1ccc(F)c(F)c1 [10735/E03]", "%", 5.1],
  ["O=C1Nc2ccc(S(=O)(=O)N3CCOCC3)cc2C1=Cc1cccc(C(F)(F)F)c1 [10735/F05]", "%", 30.2],
  ["O=C1Nc2ccc(I)cc2C1=Cc1cc(C(F)(F)F)cc(C(F)(F)F)c1 [10735/B06]", "%", 17.5],
  ["O=C1Nc2ccc(S(=O)(=O)Nc3ccc(C(F)(F)F)cc3)cc2C1=Cc1cccc(F)c1O [10734/E08]", "%", 26.6],
  ["Cc1c(Br)ccc2c1C(=Cc1ccc([N+](=O)[O-])cc1)C(=O)N2 [10734/C06]", "%", "−1.7"],
  ["Cc1c(Br)cc(Br)c2c1C(=Cc1ccc(Br)o1)C(=O)N2 [10726/H05]", "%", "−6.1"],
  ["O=C1Nc2ccc(CCCl)cc2C1=Cc1cc(C(F)(F)F)cc(C(F)(F)F)c1 [10735/G06]", "%", 18.5],
  ["CNS(=O)(=O)c1ccc2c(c1)C(=Cc1ccc(F)c(F)c1)C(=O)N2 [10735/D03]", "%", 4.5],
  ["CNS(=O)(=O)c1ccc2c(c1)C(=Cc1ccc(-c3ccccc3)cc1)C(=O)N2 [10735/D11]", "%", 25.1],
  ["CSc1ccc(C=C2C(=O)Nc3c(Br)cc(Br)c(C)c32)cc1 [10729/H04]", "%", 1.1],
  ["O=C1Nc2ccc(I)cc2C1=Cc1ccc([N+](=O)[O-])cc1 [10734/B06]", "%", "−0.9"]
]}

====

Target: EGFR (Homo sapiens, UniProt P00533)
Construct: endogenous in cells; host or cells: A431 cells (lysate, captured with SUMO1 anti-EGFR antibody)
Sequence (P00533 25-1210): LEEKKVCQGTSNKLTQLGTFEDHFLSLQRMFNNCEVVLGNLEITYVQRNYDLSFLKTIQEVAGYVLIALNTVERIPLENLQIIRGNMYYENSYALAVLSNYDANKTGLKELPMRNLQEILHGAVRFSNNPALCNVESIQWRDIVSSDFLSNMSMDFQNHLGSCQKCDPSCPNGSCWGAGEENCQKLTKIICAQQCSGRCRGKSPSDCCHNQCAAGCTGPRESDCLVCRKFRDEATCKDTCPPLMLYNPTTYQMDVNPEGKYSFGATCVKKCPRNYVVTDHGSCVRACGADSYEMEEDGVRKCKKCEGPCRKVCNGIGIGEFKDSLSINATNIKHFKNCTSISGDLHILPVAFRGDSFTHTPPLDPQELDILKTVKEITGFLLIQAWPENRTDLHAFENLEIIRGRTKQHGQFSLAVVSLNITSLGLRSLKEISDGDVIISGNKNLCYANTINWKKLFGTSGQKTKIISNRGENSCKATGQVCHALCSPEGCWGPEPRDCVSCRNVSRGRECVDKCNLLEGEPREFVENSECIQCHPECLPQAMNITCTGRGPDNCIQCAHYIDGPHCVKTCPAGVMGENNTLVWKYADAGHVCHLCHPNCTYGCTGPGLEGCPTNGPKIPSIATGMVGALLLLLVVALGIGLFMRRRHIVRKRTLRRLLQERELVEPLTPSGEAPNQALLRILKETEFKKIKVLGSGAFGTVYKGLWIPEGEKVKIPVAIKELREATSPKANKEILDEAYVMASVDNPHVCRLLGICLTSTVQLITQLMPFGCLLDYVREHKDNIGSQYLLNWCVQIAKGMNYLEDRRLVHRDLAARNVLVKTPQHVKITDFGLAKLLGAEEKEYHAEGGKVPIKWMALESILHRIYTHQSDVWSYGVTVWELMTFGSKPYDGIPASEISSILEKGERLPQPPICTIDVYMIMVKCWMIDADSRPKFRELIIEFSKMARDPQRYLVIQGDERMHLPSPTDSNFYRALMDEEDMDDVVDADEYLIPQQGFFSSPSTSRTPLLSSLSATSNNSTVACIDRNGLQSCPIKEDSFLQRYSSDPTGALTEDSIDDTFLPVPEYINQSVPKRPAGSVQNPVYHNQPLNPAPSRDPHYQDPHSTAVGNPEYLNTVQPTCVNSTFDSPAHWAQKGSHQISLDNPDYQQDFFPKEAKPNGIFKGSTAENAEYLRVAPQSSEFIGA
Experiment: Biochemical EGFR Assay
Design: concentration or dose not given beside the values
Experimental: This assay measures the in vitro kinase activity of EGFR using ELISA. 1. Corning 96-well Elisa plates (Corning Catalog No. 25805-96). 2. SUMO1 monoclonal anti-EGFR antibody (Biochemistry Lab, SUGEN, Inc.). 3. PBS (Dulbecco's Phosphate-Buffered Saline, Gibco Catalog No. 450-1300EB). 6. […] Mix first two ingredients in about 900 ml dH2O, adjust pH to 4.0 with phosphoric acid. […] The solution should be kept in the dark at 4° C. until ready to use. […] 22. Read assay on Dynatech MR7000 ELISA reader. […]
Listed molecules paired with reported Biochem EGFR % Inhibition (P.167)
Property Measured: Biochem EGFR % Inhibition (P.167) (%)

{"columns": ["Smiles Text", "Property Measured", "Quantitative Readout"],
 "data": [
  ["Cc1c(Br)ccc2c1C(=Cc1ccccc1C(F)(F)F)C(=O)N2", "Biochem EGFR % Inhibition (P.167)", 0.3],
  ["CCN(CC)c1ccc(C=C2C(=O)Nc3c(Br)cc(Br)c(C)c32)c(O)c1", "Biochem EGFR % Inhibition (P.167)", 4.7],
  ["Cc1c(Br)cc(Br)c2c1C(=Cc1coc3ccc(C(C)C)cc3c1=O)C(=O)N2", "Biochem EGFR % Inhibition (P.167)", "−3.6"],
  ["Cc1c(Br)cc(Br)c2c1C(=Cc1cc(Br)cc(Br)c1O)C(=O)N2", "Biochem EGFR % Inhibition (P.167)", 6.6],
  ["Cc1c(Br)cc(Br)c2c1C(=Cc1sc3scc(C)c3c1C)C(=O)N2", "Biochem EGFR % Inhibition (P.167)", "−12.8"]
]}

====

test system: PDGF-R; test: PDGF-R Assay (cellular ELISA, U1242 cells); assay type: cell-based; design: concentration or dose not given beside the values; settings: protocol P.119

{"columns": ["Smiles Text", "Readout Units", "PDGF Kinase % Inhibition (P.119)"],
 "data": [
  ["O=C1Nc2c(Br)cc(Br)cc2C1=Cc1ccc(OCc2ccccc2)cc1", "%", 23.2],
  ["O=C1Nc2c(Br)cc(Br)cc2C1=Cc1cccc(F)c1F", "%", 21.7],
  ["O=C1Nc2ccc(CCCl)cc2C1=Cc1cccc(F)c1F", "%", 16.1],
  ["Cc1c(Br)cc(Br)c2c1C(=Cc1ccc(OCc3ccccc3)cc1)C(=O)N2", "%", "−14.2"],
  ["CNS(=O)(=O)c1ccc2c(c1)C(=Cc1ccc(OCc3ccccc3)cc1)C(=O)N2", "%", 7.2]
]}

====

tested on: PDGF-R; experiment: PDGF-R Assay (cellular ELISA, U1242 cells); assay type: cell-based; parameters: concentration or dose not given beside the values; settings: protocol P.119

{"columns": ["Molecule", "Measured Target", "PDGF Kinase % Inhibition (P.119) / %"],
 "data": [
  ["CCc1ccc(C=C2C(=O)Nc3c(Br)cc(Br)c(C)c32)cc1 [10736/H09]", "PDGF-R", "−14.8"],
  ["O=C1Nc2ccc(CCCl)cc2C1=Cc1ccccc1Cl [10736/G11]", "PDGF-R", "−1.7"],
  ["O=C1Nc2ccc(S(=O)(=O)Nc3ccc(C(F)(F)F)cc3)cc2C1=Cc1ccc(Oc2ccccc2)cc1 [10737/E09]", "PDGF-R", 25.7],
  ["O=C1Nc2c(Br)cc(Br)cc2C1=Cc1cccc(Oc2cccc(C(F)(F)F)c2)c1 [10737/A11]", "PDGF-R", 28.1],
  ["Cc1c(Br)ccc2c1C(=Cc1cccc(F)c1F)C(=O)N2 [10737/C05]", "PDGF-R", 12.5]
]}

====

Listed molecules paired with reported PDGF Kinase % Inhibition (P.119)
Tested on: PDGF-R
Experiment: PDGF-R Assay (cellular ELISA, U1242 cells)
Type: cell-based
Set-up: concentration or dose not given beside the values
Conditions: protocol P.119
Experimental: The cellular/catalytic assays described herein are performed in an ELISA format. […] Non-substrate components of the cell lysate are washed away and the amount of phosphorylation on the substrate is detected with an antibody specifically recognizing phosphotyrosine compared with control cells that were not contacted with a test compound. […]
Property Measured: PDGF Kinase % Inhibition (P.119) (%)

{"columns": ["Smiles Text", "Property Measured", "Quantitative Readout"],
 "data": [
  ["Cc1c(Br)ccc2c1C(=Cc1ccc3ccccc3c1)C(=O)N2", "PDGF Kinase % Inhibition (P.119)", 14.5],
  ["CCc1ccc(C=C2C(=O)Nc3ccc(CCCl)cc32)cc1", "PDGF Kinase % Inhibition (P.119)", "−3.5"],
  ["CCOc1ccc(C=C2C(=O)Nc3ccc(S(=O)(=O)NC)cc32)cc1", "PDGF Kinase % Inhibition (P.119)", "−4.2"],
  ["COc1ccc(C=C2C(=O)Nc3ccc(CCCl)cc32)cc1C", "PDGF Kinase % Inhibition (P.119)", "−12.2"],
  ["O=C1Nc2ccc(S(=O)(=O)Nc3ccc(C(F)(F)F)cc3)cc2C1=Cc1ccc2ccccc2c1", "PDGF Kinase % Inhibition (P.119)", 35.6],
  ["O=C1Nc2ccc(I)cc2C1=Cc1cc(F)ccc1F", "PDGF Kinase % Inhibition (P.119)", 12.5],
  ["O=C1Nc2ccc(S(=O)(=O)N3CCOCC3)cc2C1=Cc1cccc(OCc2ccccc2)c1", "PDGF Kinase % Inhibition (P.119)", "−7.4"],
  ["O=C1Nc2c(Br)cc(Br)cc2C1=Cc1cc(F)ccc1F", "PDGF Kinase % Inhibition (P.119)", 23.7],
  ["O=C1Nc2ccc(CCCl)cc2C1=Cc1cc(F)ccc1F", "PDGF Kinase % Inhibition (P.119)", 12.1],
  ["Cc1c(Br)cc(Br)c2c1C(=Cc1ccoc1)C(=O)N2", "PDGF Kinase % Inhibition (P.119)", "−13.2"]
]}

This collection of values is drawn from patent US20020026053A1.
